test system: Cryptococcus neoformans; experiment: Antifungal activity against Cryptococcus neoformans ATCC 36556 by broth microdilution method; assay type: functional
MEASURED METRIC: log10 MIC (log10 of the value in µg/mL)
Please note: log10 values; quantity MIC; unit µg/mL.

COc1ccc2c(Cc3cc(F)c(F)c(F)c3)c3[n+](cc2c1OC)CCc1cc2c(cc1-3)OCO2.[Cl-] ... 1.81

Hey, can you go through the list below and give me log10 MIC for every item?
1. COc1ccc2cc3[n+](cc2c1OC)CCc1cc2c(cc1-3)OCO2.[Cl-] [BERBERINE CHLORIDE]
2. COc1ccc2c(Cc3ccc(C(C)C)cc3)c3[n+](cc2c1OC)CCc1cc2c(cc1-3)OCO2.[Cl-]
3. C[C@@H]1[C@H](O)[C@@H](C)/C=C/C=C/C=C/C=C/C=C/C=C/C=C/[C@H](O[C@@H]2O[C@H](C)[C@@H](O)[C@H](N)[C@@H]2O)C[C@@H]2O[C@](O)(C[C@@H](O)C[C@@H](O)[C@H](O)CC[C@@H](O)C[C@@H](O)CC(=O)O[C@H]1C)C[C@H](O)[C@H]2C(=O)O
4. COc1ccc2c(Cc3ccc(C(F)(F)F)cc3)c3[n+](cc2c1OC)CCc1cc2c(cc1-3)OCO2.[Cl-]

Result ::
1: 1.81; 2: 0.60; 3: -0.60; 4: 1.20
